Value source: ChEMBL document CHEMBL1133449

Give IC50 for every item shown.
Biological target: Acetylcholinesterase (Bos taurus)
Sequence (P23795 whole entry): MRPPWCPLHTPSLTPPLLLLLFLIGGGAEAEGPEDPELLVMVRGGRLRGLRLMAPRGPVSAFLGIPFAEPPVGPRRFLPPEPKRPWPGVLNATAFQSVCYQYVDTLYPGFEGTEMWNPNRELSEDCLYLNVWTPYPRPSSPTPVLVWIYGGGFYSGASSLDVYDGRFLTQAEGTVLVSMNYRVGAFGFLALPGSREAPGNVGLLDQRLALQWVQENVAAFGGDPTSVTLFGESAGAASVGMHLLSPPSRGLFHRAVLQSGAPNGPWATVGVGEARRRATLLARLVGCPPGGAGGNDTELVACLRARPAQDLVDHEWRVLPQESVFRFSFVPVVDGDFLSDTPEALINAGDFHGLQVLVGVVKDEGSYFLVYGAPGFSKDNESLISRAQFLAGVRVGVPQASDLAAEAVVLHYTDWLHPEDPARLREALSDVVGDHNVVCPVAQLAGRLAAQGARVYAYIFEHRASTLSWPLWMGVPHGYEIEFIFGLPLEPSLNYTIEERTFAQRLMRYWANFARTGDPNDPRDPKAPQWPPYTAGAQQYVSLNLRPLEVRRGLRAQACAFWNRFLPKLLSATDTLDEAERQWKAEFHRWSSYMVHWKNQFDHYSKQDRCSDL

[[record]]
compound = "CCC1=CC2Cc3nc4cc(Cl)ccc4c(N)c3[C@@H](C1)C2 (mixture of isomers; (-)) [HUPRINE X]"
result = "0.0674 nM"

[[record]]
compound = "CC1=CC2Cc3nc4cc(Cl)ccc4c(N)c3C(C1)C2 (stereo in doubt) [HUPRINE Y]"
result = "0.64 nM"


Could you now consider this next compound?
(Q) Quote IC50 reported for CCC1=CC2Cc3nc4cc(Cl)ccc4c(N)c3[C@@H](C1)C2 (stereo in doubt) [HUPRINE X] please.
(A) 0.23 nM
